Data origin, for the record: patent US12391768B2

- Tested on: TICA0159 IgG binding to biotinylated ticagrelor
- measurement.description: Second generation HTRF epitope competition assay
- measurement.setup: IC50 relative to parent TICA0072 Fab
experimental.readout: Fold Improved

Ask: Fill blank: measured Fold Improved of the molecule TICA0152: VL CDR3 variant of TICA0072; VH SEQ ID NO:62, VL SEQ ID NO:67 (antibody, listed as Homo sapiens, V domains shown) VH: QVQLQESGAEVKKPGSSVRVSCKASGGTFDSYSIHWVRQAPGQGLEWMGGIIPAFGTLSSAQDFQARVTISADKSTSTAYMELSGLRSEDTAVYYCARGSHLYDFWSASHPPNDALAIWGQGTLVTVSS VL: QSVVTQPPSVSAAPGQKVTISCSGSNSDIGNNYVSWYQQLPGTAPKLLIYDNNKRPSGIPDRFSGSKSGTSATLAITGLQAGDEADYYCGTWLYDRAVGLFGGGTKVTVL is ____.
Result: 23.3
